Reference source for all entries: patent US20100056508A1

- System Tested: Adrenergic β2 (Homo sapiens, UniProt P07550)
- Construct: Adherent H292 cells were removed from tissue culture flasks; endogenous in cells; host or cells: H292 cells
- Sequence (P07550 whole entry): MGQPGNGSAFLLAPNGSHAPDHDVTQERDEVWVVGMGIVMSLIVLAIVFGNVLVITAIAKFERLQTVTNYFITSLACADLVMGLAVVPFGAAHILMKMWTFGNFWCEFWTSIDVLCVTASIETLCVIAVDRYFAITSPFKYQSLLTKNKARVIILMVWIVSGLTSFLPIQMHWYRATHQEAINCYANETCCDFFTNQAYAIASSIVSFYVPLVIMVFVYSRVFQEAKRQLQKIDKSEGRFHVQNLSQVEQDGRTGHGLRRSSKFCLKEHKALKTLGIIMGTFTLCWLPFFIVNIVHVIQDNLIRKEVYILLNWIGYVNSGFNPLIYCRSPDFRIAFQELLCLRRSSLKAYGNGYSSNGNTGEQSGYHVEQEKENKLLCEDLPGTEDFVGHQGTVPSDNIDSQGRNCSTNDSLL
- Protocol Summary: Adrenergic β2 mediated cAMP production in H292 cells (AlphaScreen cAMP detection)
- Format: cell-based
- Design: key: fraction of formoterol maximum activity (formoterol = 1)
- Assay Context: Intrinsic Activity as a fraction relative to the maximum activity determined for formoterol
- Experimental: Adrenergic β2 Mediated cAMP Production H292 cells were grown in 225 cm2 flasks incubator at 37° C., 5% CO2 in RPMI medium containing, 10% (v/v) FBS (foetal bovine serum) and 2 mM L-glutamine. […] The concentration of cAMP (cyclic adenosine monophosphate) in the cell lysate was determined using AlphaScreen™ methodology. […] Intrinsic Activity was expressed as a fraction relative to the maximum activity determined for formoterol in each experiment.
Counter-ions that a name gives are not always drawn.
Each entry below lists one item and its recorded β2 Int Act value.
// return a plain number; no unit text

Compound	Readout Type	Assay Value
O=C(CCNCCc1ccc(Cl)cc1)N(CCNCCc1ccc(O)c2[nH]c(=O)ccc12)C1CCCCCC1 [Example 4, bis(trifluoroacetate)]	β2 Int Act	0.79

Any idea what β2 Int Act was measured for O=C(CCOCCc1cc(F)cc(F)c1)N(CCNCCc1ccc(O)c2[nH]c(=O)ccc12)C1CCCCC1 [Example 78, trifluoroacetate] ?
1.01

# iterate: O=C1COc2c(CCNCCN(C(=O)CCNCCc3cc(Cl)ccc3F)C3CCCCC3)ccc(O)c2N1 [Example 34, bis(trifluoroacetate)]
0.9

---

- System Tested: Adrenergic β2 (Homo sapiens)
- Construct: Adherent H292 cells were removed from tissue culture flasks; endogenous in cells; host or cells: H292 cells
- Protocol Summary: Adrenergic β2 mediated cAMP production in H292 cells (AlphaScreen cAMP detection)
- Type: cell-based
- Assay Context: cAMP production, 60 minutes at room temperature, 300 μM rolipram, read-out: β2 pEC50 (converted)
Structures can show the parent of a compound that is named as a salt.
EC50 vs 6 nM: less than gives satisfied; not less than gives not satisfied.

Previously resolved entries follow.
Molecule	Answer Label
O=C1COc2c(CCNCCN(C(=O)CCNCCc3cc(F)ccc3F)C3CCCCC3)ccc(O)c2N1 [Example 38, bis(trifluoroacetate)]	satisfied
O=C1COc2c(CCNCCN(C(=O)CCNCCc3ccccc3Cl)C3CCCCC3)ccc(O)c2N1 [Example 28, bis(trifluoroacetate)]	satisfied
O=C1Cc2c(CCNCCN(C(=O)CCNCCc3cccc(F)c3)C3CCCCC3)ccc(O)c2N1 [Example 20, dihydrobromide]	not satisfied

Determine whether this molecule shows EC50 lower than 6 nM (ties excluded): O=C1COc2c(CCNCCN(C(=O)CCNCCc3ccc(Cl)cc3Cl)C3CCCCC3)ccc(O)c2N1 [Example 31, bis(trifluoroacetate)]
not satisfied

Ok, now Cc1cccc(CCNCCC(=O)N(CCNCCc2ccc(O)c3[nH]c(=O)ccc23)C2CCCCCC2)c1 [Example 8, bis(trifluoroacetate)]
not satisfied

Lookup O=C(CCNCCc1ccc(F)cc1)N(CCNCCc1ccc(O)c2[nH]c(=O)ccc12)C1CCCCCC1 [Example 6, bis(trifluoroacetate)]
not satisfied

---

- System Tested: recombinant human Dopamine Subtype D2s receptors (Homo sapiens, UniProt P14416)
- Construct: purchased Perkin Elmer
- Sequence (P14416 1-414 isoform P14416-2): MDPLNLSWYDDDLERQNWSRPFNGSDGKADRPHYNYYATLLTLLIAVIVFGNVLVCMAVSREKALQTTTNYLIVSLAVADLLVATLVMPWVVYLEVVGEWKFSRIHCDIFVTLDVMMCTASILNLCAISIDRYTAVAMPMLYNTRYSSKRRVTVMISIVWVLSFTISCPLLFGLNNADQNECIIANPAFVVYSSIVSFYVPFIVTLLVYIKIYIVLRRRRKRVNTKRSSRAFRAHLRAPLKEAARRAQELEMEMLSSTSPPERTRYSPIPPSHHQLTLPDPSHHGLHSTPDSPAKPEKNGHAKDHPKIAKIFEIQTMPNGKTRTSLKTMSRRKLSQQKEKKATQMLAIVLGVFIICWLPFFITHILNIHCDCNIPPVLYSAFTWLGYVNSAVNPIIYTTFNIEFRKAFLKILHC
- Protocol Summary: Dopamine D2 selectivity assay, [3H]-spiperone binding to membranes
- Assay Context: inhibition of [3H]-spiperone binding, read-out: D2 bind pIC50 (converted)
- Protocol: Membranes containing recombinant human Dopamine Subtype D2s receptors were obtained from Perkin Elmer. […] Assays were performed in U-bottomed 96-well polypropylene plates. […] Five washes with 250 μL wash buffer (50 mM HEPES, 1 mM EDTA, 120 mM NaCl, pH 7.4) were performed at 4° C. to remove unbound radioactivity. […] The plates were sealed (TopSeal A) and filter-bound radioactivity was measured with a scintillation counter (TopCount, Packard BioScience) using a 3-minute counting protocol. […]
Overview of recorded IC50 for various molecules
Number only, in nM; omit the unit.

What value of IC50 on recombinant human Dopamine Subtype D2s receptors (Homo sapiens, UniProt P14416) does O=CNc1cc(CCNCCN(C(=O)CCNCCc2ccccc2)C2CCCCC2)ccc1O have?
1260

For Cl.O=C(CCOCCc1ccc(F)cc1)N(CCNCCc1ccc(O)c2[nH]c(=O)ccc12)C1CCCCC1 [Example 71, hydrochloride] then?
3980

Follow-up item: O=C1COc2c(CCNCCN(C(=O)CCNCCc3ccc(F)c(F)c3)C3CCCCC3)ccc(O)c2N1 [Example 42, bis(trifluoroacetate)]
316

Same again, this time with O=C1COc2c(CCNCCN(C(=O)CCNCCc3ccccc3Cl)C3CCCCC3)ccc(O)c2N1 [Example 28, bis(trifluoroacetate)]
79.4

Also O=C1COc2c(CCNCCN(C(=O)CCNCCc3ccccc3)C3CCCCC3)ccc(O)c2N1 [Example 23, bis(trifluoroacetate)] , if possible.
316
